These measurements were taken from PubChem BioAssay AID1159580.

# EXPERIMENTAL DETAILS: chemical genetic growth profiling, strain panel (AID 1159580);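 further: tested at 20 µM; growth read once vehicle control cultures reached saturation at 30 °C; 1 = growth at the plate median or of vehicle wells; lower values mean less growth of the strain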
# EXPERIMENTAL CONTEXT: S. cerevisiae deletion strains, growth OD, locus YBR135W, strain CKS1, hits give low values
Among all 5,500 compounds or so, about 2,000 (36%) were called active. Another 18% or so got no clear call; they are omitted. The list shows a part of the results.
# normalized growth listing for each entry below
REPORTED ENDPOINT: normalized growth

* O=C(CSC1=NNC(c2ccccn2)S1)Nc1ccccc1 (stereo unspecified) | 0.994
* CC(C)(C)c1cc(C(=O)NNc2cccc(Cl)c2)n(Cc2ccccc2)n1 | 0.983
* O=C(Nc1ccc(F)cc1F)c1cc(Cl)c(-n2cccc2)c(Cl)c1 | 0.971
* Clc1ccc(CN2CCN(c3cccc4[nH]ccc34)CC2)cc1Cl | 0.995
* Cc1ccc(-n2cccc2)c(NS(=O)(=O)c2ccc(-c3ccno3)s2)c1 | 0.944
* O=S(=O)(Oc1ccc(-c2csnn2)cc1)c1ccccc1Cl | 0.966

###

# EXPERIMENTAL DETAILS: chemical genetic growth profiling, strain panel (AID 1159580)
# EXPERIMENTAL CONTEXT: S. cerevisiae deletion strains, growth OD, locus YLR258W, strain gsy2, hits give low values
Among all 5,500 compounds or so, about 2,000 (36%) were called active. Another 18% or so got no clear call; they are omitted. The list shows a part of the results.
REPORTED ENDPOINT: normalized growth

* CC(=O)O[C@@H]1CC2C(C)(C)[C@H](O)C=C[C@]2(C)C2CC[C@]3(C)C(=CC(=O)O[C@H]3c3ccoc3)[C@@]21C (stereo not given in full) | 0.998
* C=C1c2c(Cl)ccc(O)c2C(O)=C2C(=O)[C@]3(O)C(O)=C(C(N)=O)C(=O)[C@@H](N(C)C)[C@@H]3[C@@H](O)[C@H]12 | 0.948
* CC(=O)O[C@@H]1CC2C(C)(C)C(=O)C=C[C@]2(C)C2CC[C@]3(C)C(=CC(=O)O[C@H]3c3ccoc3)[C@@]21C (stereo not given in full) | 1
* CC(=O)O[C@H]1CC[C@@]2(C)C(C[C@@H](OC(C)=O)[C@@]3(C)C4=CC(=O)O[C@@H](c5ccoc5)[C@]4(C)CCC23)C1(C)C (stereo not given in full) | 0.995
* CN(C)[C@@H]1C(=O)C(C(N)=O)=C(O)[C@@]2(O)C(=O)C3=C(O)c4c(O)cccc4[C@@](C)(O)[C@H]3[C@H](O)[C@@H]12 | 1.01

###

# EXPERIMENTAL DETAILS: chemical genetic growth profiling, strain panel (AID 1159580)
# EXPERIMENTAL CONTEXT: S. cerevisiae deletion strains, growth OD, locus YNL307C, strain MCK1, hits give low values
The campaign covered roughly 5,500 compounds. About 2,000 (36%) were called active. Roughly 18% stayed inconclusive and do not appear here. Some of the results follow.
Labelling field: enter yes if recorded normalized growth is less than 1. Enter no if it equals or exceeds that cut-off.

• Nc1ccc(S(=O)(=O)NC(=O)c2ccccc2)cc1 = no
• CC(=O)O[C@@H]1C=C[C@@]2(C)C(C[C@@H](OC(C)=O)[C@@]3(C)C4=CC(=O)O[C@@H](c5ccoc5)[C@]4(C)CCC23)C1(C)C (stereo partly drawn) = yes

###

# EXPERIMENTAL DETAILS: chemical genetic growth profiling, strain panel (AID 1159580);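 further: tested at 20 µM; growth read once vehicle control cultures reached saturation at 30 °C; 1 = growth at the plate median or of vehicle wells; lower values mean less growth of the strain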
# EXPERIMENTAL CONTEXT: S. cerevisiae deletion strains, growth OD, locus YDR137W, strain rgp1
The whole screen tested about 5,500 compounds, of which about 2,000 (36%) were called active. Not shown: some 18% with an inconclusive outcome. Rule as the data show it: active = normalized growth mostly below about 0.91 (no sharp cut-off); inconclusive = no clear call, values can overlap the other calls; inactive = mostly above about 0.92. This is one part of the list.
Possible outcomes: class 1 (active), class 0 (inactive)

• COC1CC2CCC(C)C(O)(O2)C(=O)C(=O)N2CCCCC2C(=O)OC(C(C)CC2CCC(O)C(OC)C2)CC(=O)C(C)/C=C(\C)C(O)C(OC)C(=O)C(C)CC(C)/C=C/C=C/C=C/1C (stereo not drawn) = class 1
• CC(=O)c1cc(CC=C(C)C)c(O)c(CC=C(C)C)c1 = class 0
• CC(=O)c1ccc(O)c(CC=C(C)C)c1 = class 0
• C[C@H]1c2cccc(O)c2C(O)=C2C(=O)[C@]3(O)C(O)=C(C(N)=O)C(=O)[C@@H](N(C)C)[C@@H]3[C@@H](O)[C@@H]21 = class 0
• CN(C)[C@@H]1C(=O)C(C(N)=O)=C(O)[C@@]2(O)C(=O)C3=C(O)c4c(O)cccc4[C@@](C)(O)[C@H]3[C@H](O)[C@@H]12 = class 0
• C=C1c2cccc(O)c2C(O)=C2C(=O)[C@]3(O)C(O)=C(C(N)=O)C(=O)[C@@H](N(C)C)[C@@H]3[C@@H](O)[C@H]12 = class 0
• CC(=O)O[C@@H]1CC2C(C)(C)[C@H](O)C=C[C@]2(C)C2CC[C@]3(C)C(=CC(=O)O[C@H]3c3ccoc3)[C@@]21C (stereo partly drawn) = class 0
• CC(=O)Oc1ccc(/C=C/c2cc(OC(C)=O)cc(OC(C)=O)c2)cc1 = class 0
• Cc1cc(=O)oc2cc(O)c(O)cc12 = class 0
• CC(=O)O[C@@H]1C=C[C@@]2(C)C(C[C@@H](OC(C)=O)[C@@]3(C)C4=CC(=O)O[C@@H](c5ccoc5)[C@]4(C)CCC23)C1(C)C (stereo partly drawn) = class 0
• O=C(CC(=O)c1ccccc1)c1ccccc1 = class 1
• Cc1scc2c1N(C(=O)CN1CCN(C)CC1)c1ccccc1NC2=O = class 0
• COc1ccc([C@@H]2CC(=O)c3c(O)cc(O[C@@H]4O[C@H](CO[C@H]5O[C@@H](C)[C@H](O)[C@@H](O)[C@H]5O)[C@@H](O)[C@H](O)[C@H]4O)cc3O2)cc1O = class 0
• CC(C)NCC(O)COc1ccc(COCCOC(C)C)cc1 (stereo not drawn) = class 0
• CC1=CC(=O)c2c(O)cccc2C1=O = class 1
• CC(=O)Oc1cccc(O)c1 = class 0
• NCC(=O)c1ccccc1 = class 0
• CC(=O)Oc1ccc(C(c2ccc(OC(C)=O)cc2)c2ccccn2)cc1 = class 0

###

# normalized growth listing for each entry below
# EXPERIMENTAL DETAILS: chemical genetic growth profiling, strain panel (AID 1159580);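 further: tested at 20 µM; growth read once vehicle control cultures reached saturation at 30 °C; 1 = growth at the plate median or of vehicle wells; lower values mean less growth of the strain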
# EXPERIMENTAL CONTEXT: S. cerevisiae deletion strains, growth OD, locus YLR371W, strain rom2, hits give low values
About 2,000 (36%) of roughly 5,500 compounds were called active. Not shown: some 18% with an inconclusive outcome. This is one part of the list.
REPORTED ENDPOINT: normalized growth

• Cc1ccc2c(c1)C1(C)CCCC(C)(C(=O)O)C1CC2 (stereo not given) = 1.02 (inactive)
• CC(=O)OCC(=O)[C@@]1(O)[C@H](C)CC2C3CCC4=CC(=O)C=C[C@]4(C)[C@@]3(F)[C@@H](O)C[C@@]21C (stereo not given in full) = 0.997 (inactive)
• CC(C)c1ccc2c(c1)CCC1C(C)(C(N)=O)CCCC21C (stereo not given) = 0.671 (active)
• CC(C)c1ccc2c(c1)CCC1[C@](C)(CN)CCC[C@]21C (stereo not given in full) = 0.286 (active)
• CC(C)=CC1C(C(=O)O)C1(C)C (stereo not given) = 0.968 (inactive)

###

# EXPERIMENTAL DETAILS: chemical genetic growth profiling, strain panel (AID 1159580);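 further: tested at 20 µM; growth read once vehicle control cultures reached saturation at 30 °C; 1 = growth at the plate median or of vehicle wells; lower values mean less growth of the strain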
# EXPERIMENTAL CONTEXT: S. cerevisiae deletion strains, growth OD, locus YOR270C, strain vph1, hits give low values
Hit rate of the full screen: of about 5,500 compounds, about 2,000 (36%) were called active. Not shown: some 18% with an inconclusive outcome. Some of the results follow.
Labelling field: enter criterion met if recorded normalized growth is less than 1. Enter criterion not met if it equals or exceeds that cut-off.

• Nc1ccc(S(=O)(=O)NC(=O)c2ccccc2)cc1 = criterion met
• CC(C)CCCC(C)[C@H]1CCC2C3C(=O)C=C4C[C@@H](O)CC[C@]4(C)C3CC[C@@]21C (some centres undefined) = criterion met
• N=C(N)N = criterion met
• CS(=O)(=O)c1ccc([C@@H](O)[C@@H](CO)NC(=O)C(Cl)Cl)cc1 = criterion not met
• O=P1(N(CCCl)CCCl)NCCCO1 (centres undefined) = criterion not met
• CC(CCC(=O)O)[C@H]1CCC2C3CC[C@@H]4C[C@H](O)CC[C@]4(C)C3C=C[C@@]21C (some centres undefined) = criterion met
• C/C1=C/CC(C)(C)/C=C/C/C(C)=C/CC1 = criterion met
• CC(=O)Oc1ccc(/C=C/c2cc(OC(C)=O)cc(OC(C)=O)c2)cc1 = criterion met
• CC(=O)O[C@H]1CC[C@@]2(C)C(=CC(=O)C3C4CCC(C(C)CCCC(C)C)[C@@]4(C)CCC32)C1 (some centres undefined) = criterion met
• N[C@@H](CCC(=O)N[C@@H](CS)C(=O)NCC(=O)O)C(=O)O = criterion not met
• C/C=C\C1=C(C(=O)O)N2C(=O)C(NC(=O)C(N)c3ccc(O)cc3)C2SC1 (centres undefined) = criterion not met
• CN(C)CCCN1c2ccccc2CCc2ccc(Cl)cc21 = criterion met
• CC(=O)Nc1ccc(S(=O)(=O)Nc2onc(C)c2C)cc1 = criterion met
• CC1(C)CC2C1CC[C@]1(C)CCC3C(C(=O)O)CC(=O)O[C@@]32C1 (some centres undefined) = criterion not met
• CC1=CC(=O)c2c(O)cccc2C1=O = criterion met
• Cc1c(C)c2c(c(C)c1O)CCC(C)(CCCC(C)CCCC(C)CCCC(C)C)O2 (centres undefined) = criterion not met
• CN(C)CCCN1c2ccccc2Sc2ccc(Cl)cc21 = criterion met
• CC(C)C[C@@H](CN)CC(=O)O = criterion not met
